# Assayed Target: almond β-Glc
# Protocol Text: Glycosidase specificity: almond β-glucosidase inhibition
# Reported Conditions: pNPGlc (1.6 mM)
Quantity Name: IC50 (µM)
# output: bare number, implied unit µM

{"Compound": "OC[C@H]1CNC[C@@H](O)[C@@H]1O [IFG, isofagomine, reference compound]", "Quantity Name": "IC50", "Meas Value": 0.026}

We next turn to a different compound, shown below.
Prompt line: Notebook: pull reported IC50 for almond β-Glc, entry Cc1ccc(Sc2cccc3nc(N)nc(N)c23)cc1
Response line: 190
